// data source = ChEMBL document CHEMBL1139031

- Species on record: Canis familiaris
- ASSAY PROCEDURE: Clearance in dog
- Format: ADME, organism-based, Canis lupus familiaris
- STATED CONDITIONS: in vitro
QUANTITY KIND: CL

FC1Cc2nn(-c3c(Cl)cc(C(F)(F)F)cc3Cl)cc2C1(F)F (centres undefined) :: Stable
FC1Cc2cn(-c3c(Cl)cc(C(F)(F)F)cc3Cl)nc2C1F (centres undefined) :: Stable
CC1(O)c2cn(-c3c(Cl)cc(C(F)(F)F)cc3Cl)nc2CC1(F)F (centres undefined) :: 296.9 pmol/min/mg
COC1(C)c2cn(-c3c(Cl)cc(C(F)(F)F)cc3Cl)nc2CC1F (centres undefined) :: Stable
